Recorded measurements of yeast fitness (ln), one per entry
B1: tRNA (parent)
chain: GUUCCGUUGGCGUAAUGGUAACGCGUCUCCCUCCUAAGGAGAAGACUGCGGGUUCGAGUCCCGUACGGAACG

- Variants of: B1
- PROTOCOL: yeast fitness, log relative to wild type (ln ratio); higher = fitter; tRNA-Arg(CCU), competitive growth, 37 C, 1 M NaCl

CHANGES: G1A U2G G6U C27U A43C C46U C66A A69G A70U C71U
yeast fitness (ln): -0.431

CHANGES: U2C C46U C71U
yeast fitness (ln): -0.069

CHANGES: G1A C46U C66U A70U C71U
yeast fitness (ln): -0.214

CHANGES: U2G G6A A43C C46U A69G A70U C71U
yeast fitness (ln): -0.347

CHANGES: U2C C27U C46U C66U A70U C71U
yeast fitness (ln): -0.199

CHANGES: G6U A69G A70G
yeast fitness (ln): -0.16

CHANGES: G6A C27U C66A A69G A70U C71U
yeast fitness (ln): -0.0879

CHANGES: G1A U2G G6U C27U A43C C46U C66U A69G C71U
yeast fitness (ln): -0.4

CHANGES: C46U C66A A69G C71U
yeast fitness (ln): -0.0675

CHANGES: G1A U2G A43C C66U A69G C71U
yeast fitness (ln): -0.497

CHANGES: G1A C27U A43C C46U C66A A70U C71U
yeast fitness (ln): -0.359

CHANGES: G1A G6A A43C C46U A70G
yeast fitness (ln): -0.188

CHANGES: G6U A43C A70G
yeast fitness (ln): -0.296

CHANGES: G6A C27U A43C C46U C66U A70U
yeast fitness (ln): -0.183

CHANGES: G6U C27U C66A A69G A70G C71U
yeast fitness (ln): -0.329

CHANGES: U2G G6U A70U
yeast fitness (ln): -0.0383

CHANGES: G1A U2C C27U C71U
yeast fitness (ln): -0.238

CHANGES: G1A U2C G6U A43C C46U C66A C71U
yeast fitness (ln): -0.3

CHANGES: G6A C46U A69G A70G
yeast fitness (ln): -0.18

CHANGES: U2C G6U A43C C46U C66U A69G A70G C71U
yeast fitness (ln): -0.169

CHANGES: U2G G6A
yeast fitness (ln): -0.00406

CHANGES: G1A U2G C27U A43C C66A A70U C71U
yeast fitness (ln): -0.499

CHANGES: G6A A43C C46U C66U A70U C71U
yeast fitness (ln): -0.268

CHANGES: G1A U2C C27U C46U C66U A69G A70U
yeast fitness (ln): -0.184

CHANGES: U2G G6U A43C C66A A69G A70G C71U
yeast fitness (ln): -0.315

CHANGES: G1A U2C G6U A43C C66U A70U
yeast fitness (ln): -0.295

CHANGES: G1A U2C G6U C27U C66A A69G A70G C71U
yeast fitness (ln): -0.137
